Assay: Metabolic stability in monkey liver microsomes assessed as half life incubated for 4 hrs in presence of NADPH by LC-MS analysis
Format: ADME, Macaca mulatta, Microsome
Settings: rhesus monkey
PROPERTY MEASURED: half-life (min)
Write the value in min as a bare number.

query: Please give the measured half-life for this compound: O=C(Nc1nccs1)c1cccc2[nH]c(-c3ccc(OC(F)F)c(OCC4CC4)c3)nc12
result: 44.2

* * *

Experiment: Metabolic stability in mouse liver microsomes assessed as half life incubated for 4 hrs in presence of NADPH by LC-MS analysis
Type: ADME, Microsome
PROPERTY MEASURED: half-life (min)
Write the value in min as a bare number.

query: Please give the measured half-life for this compound: O=C(Nc1nccs1)c1cccc2[nH]c(-c3ccc(OC(F)F)c(OCC4CC4)c3)nc12
result: 40.2
